Target: 5-HT7 (Homo sapiens, UniProt P34969)
Construct: purchased Euroscreen/BioSignal Packard Inc
Sequence (P34969 whole entry): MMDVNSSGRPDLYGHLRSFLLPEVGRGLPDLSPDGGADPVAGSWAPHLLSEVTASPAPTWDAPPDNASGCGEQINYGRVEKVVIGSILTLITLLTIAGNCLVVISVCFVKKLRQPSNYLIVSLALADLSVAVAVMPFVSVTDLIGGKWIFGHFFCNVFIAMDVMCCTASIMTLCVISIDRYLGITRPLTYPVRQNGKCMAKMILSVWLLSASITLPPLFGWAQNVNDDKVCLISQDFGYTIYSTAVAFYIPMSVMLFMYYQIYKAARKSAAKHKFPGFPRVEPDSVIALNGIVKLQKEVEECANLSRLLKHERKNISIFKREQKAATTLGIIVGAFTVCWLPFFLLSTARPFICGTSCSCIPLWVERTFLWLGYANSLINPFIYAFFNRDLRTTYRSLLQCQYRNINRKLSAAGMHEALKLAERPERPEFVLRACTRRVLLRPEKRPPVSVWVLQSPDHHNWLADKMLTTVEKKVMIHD
Assay: Radioligand binding, 5-HT7 ([3H]LSD)
Conditions: Table 4; [3H]LSD 3 nM; read-out: Binding affinity, IC50 (nM) 5-HT7
Recorded measurements of IC50, one per entry
Assay metric: IC50 (nM)

* CCN1C(=O)C(C)(c2ccc(OC)cc2)C(=O)c2c(N3CCNCC3)cc(Cl)cc21 (stereo not shown) | 7950
* COc1ccc([C@]2(C)C(=O)c3c(N4CCNCC4)cc(Cl)cc3N(Cc3ccccc3)C2=O)cc1 | 9520
* COc1ccc(C2(C)C(=O)c3c(N4CCNCC4)cc(Cl)cc3N(Cc3nc4ccccc4[nH]3)C2=O)cc1 (stereo not shown) | 9520
* COc1ccc(C2(C)C(=O)c3c(N4CCNCC4)cc(Cl)cc3N(Cc3cccc(N)c3)C2=O)cc1 (stereo not shown) | 8050
* COc1ccc(C2(C)C(=O)c3c(N4CCNCC4)cc(Cl)cc3N(Cc3cccnc3)C2=O)cc1 (stereo not shown) | 5990
* CC1(c2ccc(O)cc2)C(=O)c2c(N3CCNCC3)cc(Cl)cc2N(Cc2cccnc2)C1=O (stereo not shown) | 6410
* COc1ccc(C2(C)C(=O)c3c(N4CCNCC4)cc(Cl)cc3N(Cc3ccc4ccccc4n3)C2=O)cc1 (stereo not shown) | 7650

----------
Target: 5-HT2a (Homo sapiens)
Construct: purchased Euroscreen/BioSignal Packard Inc
Sequence (P28223 whole entry): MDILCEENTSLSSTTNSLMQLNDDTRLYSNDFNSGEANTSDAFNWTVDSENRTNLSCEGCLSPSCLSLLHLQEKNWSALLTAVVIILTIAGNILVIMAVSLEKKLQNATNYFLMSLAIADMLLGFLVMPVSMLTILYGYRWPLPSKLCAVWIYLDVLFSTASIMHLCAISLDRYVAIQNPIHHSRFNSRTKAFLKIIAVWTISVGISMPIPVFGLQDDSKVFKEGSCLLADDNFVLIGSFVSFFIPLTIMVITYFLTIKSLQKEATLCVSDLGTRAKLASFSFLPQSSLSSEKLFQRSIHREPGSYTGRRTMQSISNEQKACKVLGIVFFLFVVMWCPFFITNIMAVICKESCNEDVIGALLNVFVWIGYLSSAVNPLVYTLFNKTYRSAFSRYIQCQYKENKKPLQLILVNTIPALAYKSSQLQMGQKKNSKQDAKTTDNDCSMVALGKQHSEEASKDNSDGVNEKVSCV
Test: Radioligand binding, 5-HT2a ([3H]Ketanserin)
Settings: Table 4; [3H]Ketanserin 1 nM; read-out: Binding affinity, IC50 (nM) 5-HT2a
Recorded measurements of IC50, one per entry
Assay metric: IC50 (nM)

- COc1ccc(C2(C)C(=O)c3c(N4CCNCC4)cc(Cl)cc3N(CC3CCCCC3)C2=O)cc1 (stereo not shown): 5910
- CC1(c2ccc(O)cc2)C(=O)c2c(N3CCNCC3)cc(Cl)cc2N(Cc2ccc(-c3ccccc3)cc2)C1=O (stereo not shown): 8190
- CC1(c2ccc(Cl)cc2)C(=O)c2c(N3CCNCC3)cc(Cl)cc2N(Cc2ccccc2)C1=O (stereo not shown): 9100
- CC1(c2ccccc2)C(=O)c2c(N3CCNCC3)cc(Cl)cc2N(Cc2ccccc2)C1=O (stereo not shown): 2900
- CCN(CC)c1ccc(C2(C)C(=O)c3c(N4CCNCC4)cc(Cl)cc3N(Cc3ccccc3)C2=O)cc1 (stereo not shown): 7550
- COc1ccc([C@@]2(C)C(=O)c3c(N4CCNCC4)cc(Cl)cc3N(Cc3ccccc3)C2=O)cc1: 2510
- COc1ccc(C2(C)C(=O)c3c(N4CCNCC4)cc(Cl)cc3N(Cc3ccccc3)C2=O)cc1 (racemic): 543

----------
Molecular target: Human serotonin 5-HT6 receptor (Homo sapiens)
Construct: made in house; host or cells: insect Sf21 cells (baculovirus vector BacPAK8)
Sequence (P50406 whole entry): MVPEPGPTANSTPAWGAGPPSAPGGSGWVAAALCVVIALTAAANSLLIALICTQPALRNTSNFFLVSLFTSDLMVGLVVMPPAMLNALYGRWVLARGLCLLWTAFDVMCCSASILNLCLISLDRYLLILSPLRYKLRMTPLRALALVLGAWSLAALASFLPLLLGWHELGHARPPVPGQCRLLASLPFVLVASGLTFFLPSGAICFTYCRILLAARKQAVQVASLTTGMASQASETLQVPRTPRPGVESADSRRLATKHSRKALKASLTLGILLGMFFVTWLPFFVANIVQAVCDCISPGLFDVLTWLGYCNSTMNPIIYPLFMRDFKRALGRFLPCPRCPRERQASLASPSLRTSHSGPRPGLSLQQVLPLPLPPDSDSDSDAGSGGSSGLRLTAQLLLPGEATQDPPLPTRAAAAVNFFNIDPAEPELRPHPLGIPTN
Experiment: [3H]LSD binding assay on cloned 5-HT6 receptor membranes
Conditions: Table 2; 1.87 nM [3H]LSD, 37 C, 60 min; read-out: IC50 (nM), binding affinity to the 5-HT6 receptor
For each record, check the reported IC50: if it is below 5 nM write MET, else write NOT MET.

* COc1ccc(C2(C)C(=O)c3c(N4CCNCC4)cc(Cl)cc3N(Cc3cccc(N)c3)C2=O)cc1 (stereo not drawn) | NOT MET
* CC1(c2ccc([N+](=O)[O-])cc2)C(=O)c2c(N3CCNCC3)cc(Cl)cc2N(Cc2ccccc2)C1=O (stereo not drawn) | NOT MET
* CC1(c2ccc(O)cc2)C(=O)c2c(N3CCNCC3)cc(Cl)cc2N(Cc2cccc(N)c2)C1=O (stereo not drawn) | NOT MET
* CN1CCN(c2cc(Cl)cc3c2C(=O)C(C)(c2ccccc2)C(=O)N3Cc2ccccc2)CC1 (stereo not drawn) | MET
* COc1ccc(C2(C)C(=O)c3c(N4CCN(C)CC4)cc(Cl)cc3N(Cc3cccc(N)c3)C2=O)cc1 (stereo not drawn) | NOT MET
* COc1ccc([C@@]2(C)C(=O)c3c(N4CCNCC4)cc(Cl)cc3N(Cc3ccccc3)C2=O)cc1 | MET
* CCN(CC)c1ccc(C2(C)C(=O)c3c(N4CCNCC4)cc(Cl)cc3N(Cc3ccccc3)C2=O)cc1 (stereo not drawn) | NOT MET
* CC1(c2ccc(O)cc2)C(=O)c2c(N3CCNCC3)cc(Cl)cc2N(Cc2cccc(O)c2)C1=O (stereo not drawn) | MET
* C[C@@]1(c2ccc(O)cc2)C(=O)c2c(N3CCNCC3)cc(Cl)cc2N(Cc2ccccc2)C1=O | NOT MET
* CC1(c2ccc(O)cc2)C(=O)c2c(N3CCNCC3)cc(Cl)cc2N(Cc2ccccc2)C1=O (racemic) | MET
* CC1(c2ccc(O)cc2)C(=O)c2c(N3CCNCC3)cc(Cl)cc2N(Cc2ccc3ccccc3n2)C1=O (stereo not drawn) | NOT MET
* CC1(c2ccc(N)cc2)C(=O)c2c(N3CCNCC3)cc(Cl)cc2N(Cc2ccccc2)C1=O (stereo not drawn) | MET
* COc1ccc(C2(C)C(=O)c3c(N4CCNCC4)cc(Cl)cc3N(Cc3ccccc3OC)C2=O)cc1 (stereo not drawn) | NOT MET
* COc1cccc(C2(C)C(=O)c3c(N4CCNCC4)cc(Cl)cc3N(Cc3ccccc3)C2=O)c1 (stereo not drawn) | MET
* CN1CCN(c2cc(Cl)cc3c2C(=O)C(C)(c2ccc(OCc4ccccc4)c(Br)c2)C(=O)N3Cc2ccccc2)CC1 (stereo not drawn) | NOT MET

All values here come from patent US20080275058A1.
